These data points were gathered from PubChem BioAssay AID2081.

# assayed.target: Bcl-2-like protein 2 (Homo sapiens)
# measurement.protocol: Bcl-W/Bim complex disruptors – biochemical, multiplexed, bead-based flow cytometry, HTS hits, confirmation (AID 2081)
# experimental.parameters: Bim-Bcl-W binding displacement; series mostly up to 100 µM
Active and inactive are the calls of the source. The rule behind the calls is not given here.
readout.label: outcome

Below, 4 compounds whose answers are already recorded.
{"columns": ["compound", "assayed.target", "outcome"],
 "data": [
  ["COc1cc(CNc2ccc3[nH]c(=O)[nH]c3c2)cc(Br)c1OCC(=O)NC(C)(C)C", "Bcl-2-like protein 2 (Homo sapiens)", "inactive"],
  ["Cc1ccc(-c2nc3c(c(=O)[nH]c(=O)n3Cc3ccccc3)n2C)o1", "Bcl-2-like protein 2 (Homo sapiens)", "inactive"],
  ["C=CS(=O)(=O)c1sc(Cl)c(N2CCOCC2)c1[N+](=O)[O-]", "Bcl-2-like protein 2 (Homo sapiens)", "inactive"],
  ["Cc1ccc(-c2cc(-c3ccc(F)cc3)c(C#N)c(N)n2)o1", "Bcl-2-like protein 2 (Homo sapiens)", "inactive"]
]}

Would you mind listing outcome for each of the following compounds?
1. Cc1ccc(-c2cc(-c3ccc(C)o3)nc(N)c2C#N)cc1
2. COc1ccccc1-n1c(-c2ccccc2)c[nH]c1=S
3. O=C(Nc1nnc(COc2ccc(Cl)cc2)s1)c1ccco1
4. CCN(CC)c1ccc(NC(=O)c2ccccc2Br)cc1S(=O)(=O)Nc1ccccc1OC
5. CNC(CC(=O)c1ccc([N+](=O)[O-])cc1)C(Cl)(Cl)Cl (stereo unspecified)
6. Cc1ccc(-c2cc(C(=O)Nc3nccs3)c3ccccc3n2)o1
7. Cc1ccc(C=NNC(=O)CSc2nnc(-c3ccc(Cl)cc3)n2-c2ccccc2)o1

A)
1: inactive; 2: inactive; 3: inactive; 4: inactive; 5: inactive; 6: inactive; 7: inactive
